Known IC50 of a selection of compounds
biological target: IRAK4 (Homo sapiens (Human))
Sequence (Q9NWZ3 whole entry, species assumed): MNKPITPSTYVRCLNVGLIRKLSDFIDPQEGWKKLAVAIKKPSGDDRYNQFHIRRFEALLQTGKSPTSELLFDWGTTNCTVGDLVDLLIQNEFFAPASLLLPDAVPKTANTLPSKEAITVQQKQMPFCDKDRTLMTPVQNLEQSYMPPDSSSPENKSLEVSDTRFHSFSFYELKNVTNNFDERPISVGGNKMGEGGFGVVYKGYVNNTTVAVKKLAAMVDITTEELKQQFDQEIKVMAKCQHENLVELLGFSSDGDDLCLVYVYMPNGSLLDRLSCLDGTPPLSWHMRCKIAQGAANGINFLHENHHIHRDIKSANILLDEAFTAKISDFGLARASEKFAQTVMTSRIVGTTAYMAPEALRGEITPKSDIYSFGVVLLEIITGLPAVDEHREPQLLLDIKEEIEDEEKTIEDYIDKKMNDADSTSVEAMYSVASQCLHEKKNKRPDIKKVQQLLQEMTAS
Property name: IC50 (nM)

- CC(C)Nc1c(C(=O)NC[C@@H](F)C(C)(C)O)cnc2cc(-c3ccncc3F)nn12: 8.4
- CC(C)Nc1c(C(=O)NC[C@@H](F)C(C)(C)O)cnn2cc(-c3cnc(N)nc3)cc12: 22
- CC(C)(O)[C@H](F)CNC(=O)c1cnc2cc(-c3cccnc3)nn2c1N[C@H]1CC[C@H](C(C)(C)O)CC1: 53
- CNC(=O)[C@H]1CC[C@H](NC(=O)c2cnn3cc(-c4ccncc4F)cc3c2NC(C)C)CC1: 3.1
- CC(C)(O)[C@H](F)CNC(=O)c1cnc2cc(-c3cccnc3)nn2c1NCC(F)F: 300
- CC(C)Nc1c(C(=O)NC[C@@H](F)C(C)(C)O)cnc2cc(-c3ccc(=O)[nH]c3)nn12: 4.9
- CC(C)Nc1c(C(=O)N[C@H]2CC[C@H](c3nc[nH]n3)CC2)cnn2cc(-c3ccncc3F)cc12: 2.3

Data provenance: patent US12570659B2
